- Tested on: RAW 264.7 mouse macrophage cells
- Assay type: cell-based
- EXPERIMENTAL CONTEXT: Peptide 20 μg/ml; 100 ng/ml E. coli 0111:B4 LPS, 6 h
No end group written: not given here.
MEASUREMENT TYPE: Inhibition of TNF-α (%)
Numbers only here, please. The scale is %.

Examples from the recorded data:
>  <SEQUENCE CONTENT>
KWKSYAHTIMSPVRLVFHTALKPISS [SEQ ID NO: 54]

>  <QUANTITATIVE RESULT>
64

$$$$
>  <SEQUENCE CONTENT>
KKSPIAPAIPWSR (Cationic peptide) [SEQ ID NO: 8, Formula A cationic peptide]

>  <QUANTITATIVE RESULT>
39.3

$$$$
>  <SEQUENCE CONTENT>
DLPAKRGSAPGST (Cationic peptide) [SEQ ID NO: 12, Formula B cationic peptide]

>  <QUANTITATIVE RESULT>
52.1

$$$$
>  <SEQUENCE CONTENT>
KWKRGAHRFMKFLSTIFHTALKPISS [SEQ ID NO: 49]

>  <QUANTITATIVE RESULT>
86.9

$$$$

Q: Complete the entry with Inhibition of TNF-α for SLPIKHDRLPATS [SEQ ID NO: 15]
Result: 69.4
